The values you see were collected from patent US11839683B2.

test: clinical; conditions: both, human, in vivo, 3.8 mg, Cmax, Mean (SD)
Quantity kind: Cmax (ng/mL)
Give the number; ng/mL is assumed, so skip it.

query: What value of Cmax has been reported for the following compound? CN(C)CCc1c[nH]c2ccc(C[C@H]3COC(=O)N3)cc12
result: 22.6

* * *

assay: clinical; conditions: both, human, in vivo, 1.9 mg, Cmax, Median
Quantity kind: Cmax (ng/mL)
Please give a number only; it is taken to be in ng/mL.

query: Please look up its Cmax: CN(C)CCc1c[nH]c2ccc(C[C@H]3COC(=O)N3)cc12
result: 6.4

* * *

Experiment: clinical
Details: both, human, in vivo, 1.9 mg, Tmax, Median
Method: The final treatment administered was 3.8 mg on a 10 cm^2 patch using an applicator with 0.52 Joule of application energy in the intracutaneous microneedle system described herein. The products tested were: This was a single-center, open-label, randomized five-way crossover study (Part 1) followed by a sequential study of two additional treatments (Parts 2 and 3). […] After completion of the seven dosing days, subjects were assessed one final time and dismissed from the study. […]
Quantity kind: Tmax (min)
Just the number please, in min, no unit attached.

query: Quick check: Tmax of CN(C)CCc1c[nH]c2ccc(C[C@H]3COC(=O)N3)cc12 ?
result: 20

* * *

experiment: clinical; settings: both, human, in vivo, po, 2.5 mg, Cmax, Median
Quantity kind: Cmax
Please don't drop the unit; write it after the number.

query: Requested field: Cmax. Item: CN(C)CCc1c[nH]c2ccc(C[C@H]3COC(=O)N3)cc12
result: 3.7 ng/mL

* * *

Test: clinical
Settings: both, human, in vivo, 1.9 mg, t1/2, Median
Protocol: The final treatment administered was 3.8 mg on a 10 cm^2 patch using an applicator with 0.52 Joule of application energy in the intracutaneous microneedle system described herein. The products tested were: This was a single-center, open-label, randomized five-way crossover study (Part 1) followed by a sequential study of two additional treatments (Parts 2 and 3). […] After completion of the seven dosing days, subjects were assessed one final time and dismissed from the study. […]
Quantity kind: half-life (h)
# number only, unit h dropped from output

query: Need half-life of CN(C)CCc1c[nH]c2ccc(C[C@H]3COC(=O)N3)cc12 , thanks.
result: 1.41

* * *

experiment: clinical; conditions: both, human, in vivo, 1.9 mg, t1/2, Mean (SD)
Quantity kind: half-life (min)
Kindly provide the numeric value in min only, without the unit symbol.

query: Using the record for CN(C)CCc1c[nH]c2ccc(C[C@H]3COC(=O)N3)cc12 , report its half-life.
result: 87.8

* * *

experiment: clinical; conditions: both, human, in vivo, 1.9 mg, AUCinf, Mean (SD)
Quantity kind: AUC(0-inf) (µg·h/mL)
Only the number, expressed in µg·h/mL, is required.

query: Item under review: CN(C)CCc1c[nH]c2ccc(C[C@H]3COC(=O)N3)cc12 [Zolmitriptan, zolmitriptan] . Reported AUC(0-inf)?
result: 0.0141

* * *

assay: clinical; details: both, human, in vivo, t1/2, Median
Quantity kind: half-life
Write your answer as a measured quantity: the number, then the unit.

query: Entry CN(C)CCc1c[nH]c2ccc(C[C@H]3COC(=O)N3)cc12 : reported half-life = ?
result: 82 min

* * *

experiment: clinical; settings: both, human, in vivo, 3.8 mg, Cmax, Median
Quantity kind: Cmax (ng/mL)
Reply with just the number (in ng/mL).

query: Could you tell me which Cmax is on file for CN(C)CCc1c[nH]c2ccc(C[C@H]3COC(=O)N3)cc12 ?
result: 19.9

* * *

assay: clinical; settings: both, human, in vivo, 0.48 mg, Cmax, Mean (SD)
Quantity kind: Cmax (ng/mL)
Respond numerically; units are ng/mL and should not be typed.

query: # get_value(readout='Cmax', item= CN(C)CCc1c[nH]c2ccc(C[C@H]3COC(=O)N3)cc12 )
result: 1.84

* * *

assay: clinical; conditions: both, human, in vivo, Tmax, Median
Quantity kind: Tmax (min)
Numeric answer only, unit min assumed.

query: Any idea what its Tmax is? The molecule is CN(C)CCc1c[nH]c2ccc(C[C@H]3COC(=O)N3)cc12
result: 20

* * *

experiment: clinical; settings: both, human, in vivo, 1.9 mg
Quantity kind: AUCinf, Median (ng·h/mL)
Express it in ng·h/mL; write the number only.

query: Fill in the blank: the reported AUCinf, Median of CN(C)CCc1c[nH]c2ccc(C[C@H]3COC(=O)N3)cc12 is ____.
result: 14.5

* * *

test: clinical; conditions: both, human, in vivo, 3.8 mg, t1/2, Median
Quantity kind: half-life (h)
Field: numeric (h). Do not append units.

query: Entry under review: CN(C)CCc1c[nH]c2ccc(C[C@H]3COC(=O)N3)cc12 . Reported half-life?
result: 1.45

* * *

assay: clinical; conditions: both, human, in vivo, 0.48 mg, AUCinf, Mean (SD)
Quantity kind: AUC(0-inf) (ng·h/mL)
Report the figure in ng·h/mL without appending any unit label.

query: Entry CN(C)CCc1c[nH]c2ccc(C[C@H]3COC(=O)N3)cc12 has what AUC(0-inf)?
result: 3.81

* * *

assay: clinical; details: both, human, in vivo, 1.9 mg, Cmax, Mean (SD)
Quantity kind: Cmax (ng/mL)
The answer is to be given in ng/mL; state only the numeric part.

query: Need Cmax of CN(C)CCc1c[nH]c2ccc(C[C@H]3COC(=O)N3)cc12 , thanks.
result: 6.76

* * *

experiment: clinical; details: both, human, in vivo, 0.48 mg, Tmax, Median
Quantity kind: Tmax (min)
Please state the figure in min; there is no need to write the unit.

query: // returns reported Tmax for input CN(C)CCc1c[nH]c2ccc(C[C@H]3COC(=O)N3)cc12
result: 20

* * *

Assay: clinical
Conditions: both, human, in vivo, 0.48 mg, AUC2 hrs, Median
Protocol: The final treatment administered was 3.8 mg on a 10 cm^2 patch using an applicator with 0.52 Joule of application energy in the intracutaneous microneedle system described herein. The products tested were: This was a single-center, open-label, randomized five-way crossover study (Part 1) followed by a sequential study of two additional treatments (Parts 2 and 3). […] After completion of the seven dosing days, subjects were assessed one final time and dismissed from the study. […]
Quantity kind: AUC(0-t)
Units required after the number.

query: Find the recorded AUC(0-t) belonging to CN(C)CCc1c[nH]c2ccc(C[C@H]3COC(=O)N3)cc12 and report it.
result: 2.11 ng·h/mL

* * *

assay: clinical; conditions: both, human, in vivo, 0.48 mg, t1/2, Mean (SD)
Quantity kind: half-life (h)
Quick reminder: number only, in h, skip the unit.

query: Record request: half-life value, item CN(C)CCc1c[nH]c2ccc(C[C@H]3COC(=O)N3)cc12 [Zolmitriptan, zolmitriptan]
result: 1.15

* * *

assay: clinical; details: both, human, in vivo, 0.48 mg, AUCt, Median
Quantity kind: AUC(0-t)

query: Sample CN(C)CCc1c[nH]c2ccc(C[C@H]3COC(=O)N3)cc12 — what was its AUC(0-t)?
result: 2.78 ng·h/mL

* * *

test: clinical; details: both, human, in vivo, 0.48 mg, Cmax, Median
Quantity kind: Cmax (ng/mL)
Number only, in ng/mL; omit the unit.

query: Given the entry CN(C)CCc1c[nH]c2ccc(C[C@H]3COC(=O)N3)cc12 [Zolmitriptan, zolmitriptan] , report its measured Cmax.
result: 1.8

* * *

assay: clinical; settings: both, human, in vivo, 0.48 mg, AUC2 hrs, Mean (SD)
Quantity kind: AUC(0-t) (ng·h/mL)
Output spec: scalar in ng·h/mL, unitless text.

query: Value lookup for AUC(0-t); key = CN(C)CCc1c[nH]c2ccc(C[C@H]3COC(=O)N3)cc12
result: 2.11

* * *

test: clinical; conditions: both, human, in vivo, 1.9 mg, AUC2 hrs, Median
Quantity kind: AUC(0-t) (ng·h/mL)
State the answer as a number, implicitly in ng·h/mL.

query: Return reported AUC(0-t); argument: CN(C)CCc1c[nH]c2ccc(C[C@H]3COC(=O)N3)cc12 [Zolmitriptan, zolmitriptan]
result: 7.75

* * *

Test: clinical
Settings: both, human, in vivo, 3.8 mg, Tmax, Median
Experimental: The final treatment administered was 3.8 mg on a 10 cm^2 patch using an applicator with 0.52 Joule of application energy in the intracutaneous microneedle system described herein. The products tested were: This was a single-center, open-label, randomized five-way crossover study (Part 1) followed by a sequential study of two additional treatments (Parts 2 and 3). […] After completion of the seven dosing days, subjects were assessed one final time and dismissed from the study. […]
Quantity kind: Tmax (min)
Lab book: enter the figure in min, no units written.

query: Query (molecule): CN(C)CCc1c[nH]c2ccc(C[C@H]3COC(=O)N3)cc12 ; field requested: Tmax
result: 15

* * *

test: clinical; conditions: both, human, in vivo, 0.48 mg, t1/2, Median
Quantity kind: half-life

query: State the recorded half-life for this entry: CN(C)CCc1c[nH]c2ccc(C[C@H]3COC(=O)N3)cc12
result: 1.08 h
